Measured IC50 accompanies every entry in the list below.
- target: PI3K γ (Homo sapiens (Human), UniProt P48736)
- Sequence (P48736 whole entry): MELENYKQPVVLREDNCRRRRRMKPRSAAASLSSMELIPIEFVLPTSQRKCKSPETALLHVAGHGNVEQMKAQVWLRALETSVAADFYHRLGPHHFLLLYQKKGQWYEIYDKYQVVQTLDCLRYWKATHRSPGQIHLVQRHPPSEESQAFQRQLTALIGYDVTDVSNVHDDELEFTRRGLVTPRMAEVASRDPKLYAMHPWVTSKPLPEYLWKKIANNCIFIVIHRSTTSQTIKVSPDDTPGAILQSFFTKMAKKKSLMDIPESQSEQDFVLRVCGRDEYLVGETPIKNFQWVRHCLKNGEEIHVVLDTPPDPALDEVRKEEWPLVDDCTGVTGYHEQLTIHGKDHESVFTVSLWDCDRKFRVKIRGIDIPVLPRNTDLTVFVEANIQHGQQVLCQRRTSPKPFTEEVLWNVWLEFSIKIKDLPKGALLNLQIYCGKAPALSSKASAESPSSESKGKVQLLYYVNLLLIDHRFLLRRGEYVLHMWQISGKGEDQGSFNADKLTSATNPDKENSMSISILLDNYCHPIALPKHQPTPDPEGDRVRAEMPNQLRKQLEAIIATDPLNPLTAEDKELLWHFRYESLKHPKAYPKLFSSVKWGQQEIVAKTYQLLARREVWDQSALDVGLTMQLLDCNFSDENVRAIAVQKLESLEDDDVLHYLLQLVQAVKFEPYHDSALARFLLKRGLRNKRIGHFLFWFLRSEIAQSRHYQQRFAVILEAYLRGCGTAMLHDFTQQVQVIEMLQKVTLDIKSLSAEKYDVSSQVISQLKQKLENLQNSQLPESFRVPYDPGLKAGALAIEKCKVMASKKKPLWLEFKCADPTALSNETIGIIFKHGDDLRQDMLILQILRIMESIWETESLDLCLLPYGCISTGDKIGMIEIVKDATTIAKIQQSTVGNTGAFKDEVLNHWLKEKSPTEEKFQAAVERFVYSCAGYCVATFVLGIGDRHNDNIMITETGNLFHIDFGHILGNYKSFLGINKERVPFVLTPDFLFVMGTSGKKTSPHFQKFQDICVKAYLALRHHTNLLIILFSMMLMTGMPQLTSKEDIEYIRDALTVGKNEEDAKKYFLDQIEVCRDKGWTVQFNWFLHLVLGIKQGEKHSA
- procedure text: PI 3-Kinase (human) HTRF assay, p110γ
- Format: biochemical
- measurement setup: read-out: PI3K γ IC50

Consider the following illustrative entries.
CC1CN(C2CN(c3cnc4ccc(-c5ccc6oc(N)nc6c5)nc4n3)C2)CCO1 (centres unmarked): < 10000 nM
CN1CC2CN(c3cnc4ccc(-c5ccc6oc(N)nc6c5)nc4n3)CC2C1 (centres unmarked): < 10000 nM
CCNC(=O)c1cnc2ccc(-c3ccc4oc(N)nc4c3)cn12: < 100 nM
Cn1c(N2CCOCC2)nc2cc(-c3ccc4oc(N)nc4c3)ccc2c1=O: > 10000 nM
Nc1nc2cc(-c3ccc4ncc(N5CC6CCC(C5)O6)cc4n3)ccc2o1: < 100 nM

Query: Given the compound "NCC(=O)N1CCN(c2cnc3ccc(-c4ccc5oc(N)nc5c4)nc3n2)CC1" , what is its reported IC50?
Response: < 10000 nM

Query: Would you mind telling me what IC50 value was observed for CC1CN(c2cnc3ccc(-c4ccc5oc(N)nc5c4)cc3n2)CCO1 (centres unmarked) ?
Response: < 100 nM

Query: Entry "CC(=O)N1CCN(c2cnc3ccc(-c4ccc5oc(N)nc5c4)cc3n2)CC1" : reported IC50 = ?
Response: < 100 nM

Query: For the compound shown here, "Nc1nc2ccc(-c3ccc4ncc(C(=O)N5CCOCC5)n4c3)cc2o1" , give the reported IC50.
Response: < 1000 nM

Query: IC50 for CN1CCN(c2ccc(-c3cnc4ccc(-c5ccc6oc(N)nc6c5)cn34)cn2)CC1 [Compound 42] ?
Response: < 1000 nM

Query: What does the record list as IC50 for "CN1CC(C(=O)N2CCC(Nc3ncnc4ccc(-c5ccc6oc(N)nc6c5)cc34)CC2)C1" ?
Response: < 1000 nM

Query: I'd like to know its IC50. The compound in question is "Nc1nc2cc(-c3ccc4ncc(C(=O)Nc5cccnc5)n4c3)ccc2o1"
Response: < 100 nM

Query: Give the measured IC50 of "CC(C)(N)C(=O)N1CCN(c2ccc3ncc(-c4ccc5oc(N)nc5c4)cc3n2)CC1" .
Response: < 10000 nM

Query: Which value of IC50 has been reported for CN1CCN(c2ccnc3ccc(-c4ccc5oc(N)nc5c4)cc23)CC1 [Compound 21] in the records?
Response: < 10000 nM

Query: Quick check: IC50 of CC(=O)Nc1nc2ccc(-c3ccc4nccc(-c5ccncc5)c4c3)cc2s1 [Compound 2] ?
Response: < 1000 nM

Query: Can you look up the measured IC50 of Nc1ncc2cc(-c3ccc4nccc(-c5ccncc5)c4c3)ccc2n1 [Compound 9] for me?
Response: < 1000 nM

Query: // query IC50 value for entry "CN1CCN(c2nc3cc(-c4ccc5oc(N)nc5c4)ccc3c(=O)n2C)CC1"
Response: > 10000 nM

Query: Dear colleague, I am looking for the recorded IC50 of the following compound: "Nc1nc2cc(-c3ccc4ncc(N5C6CCC5COC6)nc4n3)ccc2o1"
Response: < 100 nM

Query: Returns the measured IC50 for the input compound. Input: "Nc1nc2cc(-c3ccc4ncc(N5CC(N6C7CCC6COC7)C5)nc4n3)ccc2o1"
Response: > 10000 nM

Query: What value of IC50 has been reported for the following compound? "Nc1nc2cc(-c3ccc4ncc(-c5ccncc5)nc4c3)ccc2o1"
Response: < 100 nM

Query: Any idea what IC50 was measured for "CC(=O)N1CCC(Nc2cnc3ccc(-c4ccc5oc(N)nc5c4)cc3n2)CC1" ?
Response: < 100 nM

Query: I would be grateful if you could share the reported IC50 for "Nc1nc2cc(-c3ccc4ncc(C(=O)N5CCNCC5)n4c3)ccc2o1" .
Response: > 10000 nM

Query: IC50 for "C[C@@H](N)C(=O)N1CCN(c2cnc3ccc(-c4ccc5oc(N)nc5c4)nc3n2)CC1" ?
Response: < 1000 nM

Query: So what's the measured IC50 for this one? "Nc1nc2cc(-c3ccc4ncc(C(=O)N5CCOCC5)n4n3)ccc2o1"
Response: < 1000 nM

Query: Item under review: Nc1nc2cc(-c3ccc4ncnc(N5CCC(O)CC5)c4c3)ccc2o1 [Compound 29] . Reported IC50?
Response: < 100 nM

Query: Recorded IC50 of "CS(=O)(=O)N1CCC(Nc2ncnc3ccc(-c4ccc5oc(N)nc5c4)cc23)CC1" , please.
Response: < 100 nM

* * *

The entries below come with measured IC50 values attached.
- procedure text: PI 3-Kinase (human) HTRF assay, p110δ/p85α
- Type: biochemical
- measurement setup: read-out: PI3K γ IC50

Nc1nc2cc(-c3ccc4ncc(C(=O)N5CCOCC5)n4c3)c(Cl)cc2o1: > 10 µM

Query: Suppose we examine the molecule "CN(C)[C@H]1CCN(c2cnc3ccc(-c4ccc5oc(N)nc5c4)cc3n2)C1" ; what IC50 value has been reported?
Response: < 10 µM

Query: Given the molecule "COc1ncc(-c2ccc3ncc(C(=O)N4CCOCC4)n3c2)cc1NS(C)(=O)=O" , what is its reported IC50?
Response: < 10 µM

Query: Item "Nc1nc2cc(-c3ccc4ncc(C(=O)N5CC(O)C5)n4c3)ccc2o1" has what recorded IC50?
Response: < 10 µM

Query: What does the record list as IC50 for "C[C@H]1CN(c2cnc3ccc(-c4ccc5sc(N)nc5c4)cc3n2)CCN1" ?
Response: > 10 µM

Query: Reported IC50 for "Nc1nc2cccc(-c3ccc4ncc(C(=O)N5CCOCC5)n4c3)c2s1" : what is it?
Response: > 10 µM

* * *

For reference, IC50 measured on mTORC (Homo sapiens (Human), UniProt P42345):

Consider the reported IC50 for these compounds:
Nc1nc2cc(-c3ccc4ncc(N5CC(C(=O)N6CCN(C7CC7)CC6)C5)nc4c3)ccc2o1: < 10 µM
Nc1nc2cc(-c3ccc4ncc(N5CC(N6CCNCC6)C5)nc4c3)ccc2o1: > 10 µM
CN1CCN(C2CN(C(=O)c3cnc4ccc(-c5ccc6oc(N)nc6c5)cn34)C2)CC1: < 10 µM
Nc1nc2cc(-c3ccc4ncc(N5CC[C@H](O)C5)nc4c3)ccc2o1: < 10 µM
Cc1ccn(C2CN(c3cnc4ccc(-c5ccc6oc(N)nc6c5)cc4n3)C2)n1: > 10 µM

Query: Which IC50 is listed for "CN1CCN(C2CN(c3cnc4ccc(-c5ccc6oc(N)nc6c5)nc4c3)C2)CC1=O" ?
Response: < 10 µM

Query: Need IC50, item "CC(C)N1CCN(C2CN(c3cnc4ccc(-c5ccc6oc(N)nc6c5)cc4n3)C2)CC1"
Response: > 10 µM

* * *

Quick note: these are pIC50 numbers for system: PI3K β (Homo sapiens (Human))
Sequence (P42338 whole entry): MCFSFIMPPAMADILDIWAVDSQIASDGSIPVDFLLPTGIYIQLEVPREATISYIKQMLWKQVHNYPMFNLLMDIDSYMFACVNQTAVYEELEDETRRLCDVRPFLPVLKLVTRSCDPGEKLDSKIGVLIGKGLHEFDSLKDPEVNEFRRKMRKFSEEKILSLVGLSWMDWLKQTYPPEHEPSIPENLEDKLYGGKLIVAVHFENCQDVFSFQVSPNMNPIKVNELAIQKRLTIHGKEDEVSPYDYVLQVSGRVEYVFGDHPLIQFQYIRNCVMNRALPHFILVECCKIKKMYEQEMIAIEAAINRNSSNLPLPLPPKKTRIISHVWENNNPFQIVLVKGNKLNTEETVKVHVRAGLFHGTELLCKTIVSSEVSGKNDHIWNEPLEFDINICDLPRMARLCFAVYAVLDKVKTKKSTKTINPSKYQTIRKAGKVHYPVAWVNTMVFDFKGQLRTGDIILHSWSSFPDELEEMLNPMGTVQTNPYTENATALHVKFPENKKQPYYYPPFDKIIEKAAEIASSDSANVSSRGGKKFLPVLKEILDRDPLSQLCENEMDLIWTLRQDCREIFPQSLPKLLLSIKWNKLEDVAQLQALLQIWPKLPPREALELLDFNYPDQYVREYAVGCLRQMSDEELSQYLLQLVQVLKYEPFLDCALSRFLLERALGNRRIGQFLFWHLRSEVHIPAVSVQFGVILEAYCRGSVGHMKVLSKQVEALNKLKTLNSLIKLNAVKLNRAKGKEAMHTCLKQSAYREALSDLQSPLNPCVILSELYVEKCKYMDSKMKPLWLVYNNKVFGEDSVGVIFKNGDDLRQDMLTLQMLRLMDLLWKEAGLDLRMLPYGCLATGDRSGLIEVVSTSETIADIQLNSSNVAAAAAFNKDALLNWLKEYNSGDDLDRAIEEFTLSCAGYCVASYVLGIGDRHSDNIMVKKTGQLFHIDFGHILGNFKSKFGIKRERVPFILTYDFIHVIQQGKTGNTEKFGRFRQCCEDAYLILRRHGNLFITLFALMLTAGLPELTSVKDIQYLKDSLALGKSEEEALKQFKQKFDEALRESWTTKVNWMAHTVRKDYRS
Sequence (P27986 whole entry partner): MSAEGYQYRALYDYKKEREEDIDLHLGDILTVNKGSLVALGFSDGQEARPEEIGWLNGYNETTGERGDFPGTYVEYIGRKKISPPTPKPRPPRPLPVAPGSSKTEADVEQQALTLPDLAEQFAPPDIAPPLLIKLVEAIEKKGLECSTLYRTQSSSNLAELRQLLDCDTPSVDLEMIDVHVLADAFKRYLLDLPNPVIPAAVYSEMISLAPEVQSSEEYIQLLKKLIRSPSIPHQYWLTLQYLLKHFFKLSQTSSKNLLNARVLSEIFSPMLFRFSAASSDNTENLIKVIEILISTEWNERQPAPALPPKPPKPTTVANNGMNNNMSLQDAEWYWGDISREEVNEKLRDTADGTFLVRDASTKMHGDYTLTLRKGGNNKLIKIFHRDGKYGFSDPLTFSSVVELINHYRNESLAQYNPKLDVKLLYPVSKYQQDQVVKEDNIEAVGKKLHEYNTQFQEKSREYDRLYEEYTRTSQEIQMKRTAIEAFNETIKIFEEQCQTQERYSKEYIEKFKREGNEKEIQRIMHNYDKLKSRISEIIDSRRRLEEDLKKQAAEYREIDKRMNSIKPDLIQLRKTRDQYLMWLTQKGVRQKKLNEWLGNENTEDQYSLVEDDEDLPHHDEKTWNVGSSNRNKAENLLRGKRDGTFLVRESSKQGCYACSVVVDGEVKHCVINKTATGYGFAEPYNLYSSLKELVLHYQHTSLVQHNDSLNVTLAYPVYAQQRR
pIC50: −log10 of the molar value.

Example compounds with recorded pIC50:
Nc1nc2ccc(-c3ccc4ncc(C(=O)N5CCOCC5)n4c3)cc2o1: > 6.00
CS(=O)(=O)Nc1cccc(-c2ccc3ncc(C(=O)N4CCOCC4)n3c2)c1: < 5.00
Nc1nc2cc(-c3ccc4ncc(-c5cccnc5)n4n3)ccc2o1: > 7.00

Turning to the following compound.
Query: Form field: pIC50 recorded for "CN1CCC(NC(=O)c2cnc3ccc(-c4ccc5oc(N)nc5c4)nn23)CC1" with PI3K β (Homo sapiens (Human)) (enter value)
Response: > 7.00

* * *

- procedure text: PI 3-Kinase (human) HTRF assay, p110δ/p85α
- Type: biochemical
- measurement setup: read-out: PI3K γ IC50
experimental endpoint: IC50

A selection of reference data follows.
CC(C)n1cnc2ccc(-c3ccc4oc(N)nc4c3)cc2c1=O: > 10 µM
CN(C)[C@@H]1CCN(c2cnc3ccc(-c4ccc5oc(N)nc5c4)cc3n2)C1: < 10 µM
CN1CCN(CCNC(=O)c2cnc3ccc(-c4ccc5oc(N)nc5c4)cn23)CC1: < 1 µM
Nc1nc2cc(-c3ccc4ncc(C(=O)N5CCC6(C5)OCCO6)n4c3)ccc2o1: > 10 µM
Nc1nc2cc(-c3ccc4ncc(N5CC(N6CCC(O)CC6)C5)nc4c3)ccc2o1: < 10 µM

Query: Quick one: IC50 of "O=C(c1cnc2ccc(-c3cncc(NS(=O)(=O)c4ccc(F)cc4F)c3)cn12)N1CCOCC1" ?
Response: < 1 µM

Query: I have this compound here, "Nc1nc2cc(-c3ccc4nc(N)sc4c3)ccc2o1" , and I need its recorded IC50.
Response: < 10 µM

* * *

- target: PI3K α (Homo sapiens (Human), UniProt P42336)
- Sequence (P42336 whole entry): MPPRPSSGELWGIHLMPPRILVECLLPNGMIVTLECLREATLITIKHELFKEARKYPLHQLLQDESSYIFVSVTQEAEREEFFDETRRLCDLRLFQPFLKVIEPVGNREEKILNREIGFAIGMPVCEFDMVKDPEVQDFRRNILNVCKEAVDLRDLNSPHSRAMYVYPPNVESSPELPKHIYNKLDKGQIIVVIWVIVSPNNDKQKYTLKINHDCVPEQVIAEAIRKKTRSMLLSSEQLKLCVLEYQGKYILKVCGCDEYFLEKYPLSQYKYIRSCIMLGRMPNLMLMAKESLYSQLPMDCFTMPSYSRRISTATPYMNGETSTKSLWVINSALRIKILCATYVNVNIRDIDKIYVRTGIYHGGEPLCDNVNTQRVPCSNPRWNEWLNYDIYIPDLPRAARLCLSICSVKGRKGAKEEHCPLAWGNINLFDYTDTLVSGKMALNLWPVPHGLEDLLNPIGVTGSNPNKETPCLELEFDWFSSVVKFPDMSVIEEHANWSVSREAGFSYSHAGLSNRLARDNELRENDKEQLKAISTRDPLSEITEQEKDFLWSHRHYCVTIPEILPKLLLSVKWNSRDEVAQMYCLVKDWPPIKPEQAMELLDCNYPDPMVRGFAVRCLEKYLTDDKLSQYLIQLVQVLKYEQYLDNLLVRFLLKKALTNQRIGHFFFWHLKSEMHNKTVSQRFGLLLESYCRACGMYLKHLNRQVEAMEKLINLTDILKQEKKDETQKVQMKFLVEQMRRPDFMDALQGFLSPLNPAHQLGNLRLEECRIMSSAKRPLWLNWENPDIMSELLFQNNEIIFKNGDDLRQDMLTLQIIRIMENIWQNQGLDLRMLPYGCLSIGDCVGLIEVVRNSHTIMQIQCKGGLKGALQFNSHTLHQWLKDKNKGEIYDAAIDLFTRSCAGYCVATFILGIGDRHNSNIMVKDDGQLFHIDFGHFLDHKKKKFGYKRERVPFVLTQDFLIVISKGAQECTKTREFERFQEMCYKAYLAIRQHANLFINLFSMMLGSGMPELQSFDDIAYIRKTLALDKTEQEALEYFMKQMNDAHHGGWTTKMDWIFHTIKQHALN
- Sequence (P27986 whole entry partner): as the sequence (P27986 whole entry partner) above
pIC50: −log10 of the molar value.
The entries below come with measured pIC50 values attached.

Illustrative cases are given below, each with its answer.
Nc1nc2cc(-c3ccc4ncc(N5CC(N6CCN(C7CC7)CC6)C5)nc4n3)ccc2o1: > 7.00
C[C@@H]1CN(c2cnc3ccc(-c4ccc5oc(N)nc5c4)cc3n2)CCN1: > 7.00

Query: Query pIC50 on PI3K α (Homo sapiens (Human), UniProt P42336) for "CCN(CC)CCn1cnc2ccc(-c3ccc4oc(N)nc4c3)cc2c1=O"
Response: > 5.00
